# inhibition annotations
target.desc: Protein kinase C zeta type (Homo sapiens)
experimental.protocol: Inhibition of PKCzeta (unknown origin) at 50 nM by Z'LYTE screening method relative to control

>  <molecule>
O=C1c2ccccc2CN1c1nc(N[C@H]2CC[Se]C2)c2nc[nH]c2n1

>  <target.desc>
Protein kinase C zeta type (Homo sapiens)

>  <unit.spec>
%

>  <inhibition>
6

$$$$
>  <molecule>
CCN(CC)CCCC(C)Nc1nc(N2Cc3ccccc3C2=O)nc2[nH]cnc12 (configuration not stated)

>  <target.desc>
Protein kinase C zeta type (Homo sapiens)

>  <unit.spec>
%

>  <inhibition>
7

$$$$
>  <molecule>
O=c1c2ccccc2[se]n1-c1nc(N[C@@H]2C[C@H]3CC[C@@H]2C3)c2nc[nH]c2n1

>  <target.desc>
Protein kinase C zeta type (Homo sapiens)

>  <unit.spec>
%

>  <inhibition>
7

$$$$
>  <molecule>
O=c1c2ccccc2[se]n1-c1nc(NC2CCCCC2)c2nc[nH]c2n1

>  <target.desc>
Protein kinase C zeta type (Homo sapiens)

>  <unit.spec>
%

>  <inhibition>
9

$$$$
>  <molecule>
O=c1c2ccccc2[se]n1-c1nc(N[C@H]2CC[Se]C2)c2nc[nH]c2n1

>  <target.desc>
Protein kinase C zeta type (Homo sapiens)

>  <unit.spec>
%

>  <inhibition>
12

$$$$
>  <molecule>
C[C@@H]1[C@H]2C[C@@H](C[C@H]1Nc1nc(-n3[se]c4ccccc4c3=O)nc3[nH]cnc13)C2(C)C

>  <target.desc>
Protein kinase C zeta type (Homo sapiens)

>  <unit.spec>
%

>  <inhibition>
7

$$$$
>  <molecule>
CCCNc1nc(-n2[se]c3ccccc3c2=O)nc2[nH]cnc12

>  <target.desc>
Protein kinase C zeta type (Homo sapiens)

>  <unit.spec>
%

>  <inhibition>
3

$$$$
>  <molecule>
O=c1c2ccccc2[se]n1-c1nc(N[C@H]2CCOC2)c2nc[nH]c2n1

>  <target.desc>
Protein kinase C zeta type (Homo sapiens)

>  <unit.spec>
%

>  <inhibition>
2

$$$$
>  <molecule>
CCN(CC)CCCC(C)Nc1nc(-n2[se]c3ccccc3c2=O)nc2[nH]cnc12 (configuration not stated)

>  <target.desc>
Protein kinase C zeta type (Homo sapiens)

>  <unit.spec>
%

>  <inhibition>
9

$$$$
>  <molecule>
O=c1c2ccccc2[se]n1-c1nc(Nc2ccccc2)c2nc[nH]c2n1

>  <target.desc>
Protein kinase C zeta type (Homo sapiens)

>  <unit.spec>
%

>  <inhibition>
4

$$$$
>  <molecule>
O=C1c2ccccc2CN1c1nc(NC2CCCCC2)c2nc[nH]c2n1

>  <target.desc>
Protein kinase C zeta type (Homo sapiens)

>  <unit.spec>
%

>  <inhibition>
9

$$$$
>  <molecule>
O=C1c2ccccc2CN1c1nc(NC2CCCC2)c2nc[nH]c2n1

>  <target.desc>
Protein kinase C zeta type (Homo sapiens)

>  <unit.spec>
%

>  <inhibition>
6

$$$$

###

target.desc: Mitogen-activated protein kinase 11 (Homo sapiens) (UniProt Q15759)
Sequence (Q15759 whole entry): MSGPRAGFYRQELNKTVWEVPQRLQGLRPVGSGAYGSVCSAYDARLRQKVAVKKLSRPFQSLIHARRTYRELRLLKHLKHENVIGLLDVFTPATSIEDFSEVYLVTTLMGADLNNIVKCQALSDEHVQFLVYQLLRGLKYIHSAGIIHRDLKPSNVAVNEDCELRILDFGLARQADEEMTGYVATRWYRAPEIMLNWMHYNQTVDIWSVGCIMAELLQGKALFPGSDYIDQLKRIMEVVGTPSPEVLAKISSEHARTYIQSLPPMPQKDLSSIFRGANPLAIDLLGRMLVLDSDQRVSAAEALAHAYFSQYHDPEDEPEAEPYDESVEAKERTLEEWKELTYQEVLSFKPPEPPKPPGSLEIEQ
experimental.protocol: Inhibition of MAPK11 (unknown origin) at 50 nM by Z'LYTE screening method relative to control

>  <mol.smiles>
O=C1c2ccccc2CN1c1nc(NC2CCCC2)c2nc[nH]c2n1

>  <unit.spec>
%

>  <inhibition>
0

$$$$
>  <mol.smiles>
O=c1c2ccccc2[se]n1-c1nc(NC2CCCCC2)c2nc[nH]c2n1

>  <unit.spec>
%

>  <inhibition>
3

$$$$
>  <mol.smiles>
O=C1c2ccccc2CN1c1nc(NC2CCCCC2)c2nc[nH]c2n1

>  <unit.spec>
%

>  <inhibition>
1

$$$$
>  <mol.smiles>
C[C@@H]1[C@H]2C[C@@H](C[C@H]1Nc1nc(-n3[se]c4ccccc4c3=O)nc3[nH]cnc13)C2(C)C

>  <unit.spec>
%

>  <inhibition>
4

$$$$
>  <mol.smiles>
O=c1c2ccccc2[se]n1-c1nc(N[C@@H]2C[C@H]3CC[C@@H]2C3)c2nc[nH]c2n1

>  <unit.spec>
%

>  <inhibition>
4

$$$$
